- tgt: SARS-CoV-2 S1 (antigen of the Carterra SPR kinetics) (SARS-CoV-2, UniProt P0DTC2 16-685)
- test-description: Carterra SPR
Measured koff of individual entries
Only the number, expressed in s⁻¹, is required.

{"columns": ["binder", "unit-name", "koff"],
 "data": [
  ["1-47 (antibody, V domains shown, also called variant 1-47) VH: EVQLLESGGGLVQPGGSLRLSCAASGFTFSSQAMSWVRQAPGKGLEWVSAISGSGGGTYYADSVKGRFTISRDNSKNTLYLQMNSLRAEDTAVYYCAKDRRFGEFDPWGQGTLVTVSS VL: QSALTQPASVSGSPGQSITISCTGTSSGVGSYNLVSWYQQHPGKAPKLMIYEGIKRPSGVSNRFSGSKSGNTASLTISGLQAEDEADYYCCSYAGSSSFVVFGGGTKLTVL", "s⁻¹", 0.24],
  ["1-3 (antibody, V domains shown, also called variant 1-3) VH: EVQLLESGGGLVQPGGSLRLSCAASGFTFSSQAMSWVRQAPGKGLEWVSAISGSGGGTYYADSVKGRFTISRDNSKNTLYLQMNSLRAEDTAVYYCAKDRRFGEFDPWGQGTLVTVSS VL: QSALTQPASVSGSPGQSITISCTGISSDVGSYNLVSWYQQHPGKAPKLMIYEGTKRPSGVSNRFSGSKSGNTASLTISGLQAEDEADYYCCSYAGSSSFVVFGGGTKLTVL", "s⁻¹", 0.304]
]}

# input Name the recorded koff of the binder listed here: 1-27 (antibody, V domains shown, also called variant 1-27) VH: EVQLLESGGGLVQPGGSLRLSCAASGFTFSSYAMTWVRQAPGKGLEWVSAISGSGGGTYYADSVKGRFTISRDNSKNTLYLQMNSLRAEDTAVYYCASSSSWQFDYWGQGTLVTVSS VL: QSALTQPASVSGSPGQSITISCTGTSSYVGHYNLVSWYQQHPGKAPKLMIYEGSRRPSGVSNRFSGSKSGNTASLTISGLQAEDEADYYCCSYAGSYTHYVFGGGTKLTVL
# output 0.00285
